Data origin: patent US10689381B2

Answer each item with its documented IC50.
# System: L1210
# Protocol text: cells
# Assay type: cell-based, mouse
# Test settings: Table 2
# Method: A population of cells (>1×10^6 cells/mL as determined with a hemocytometer) was diluted with Dulbecco's Modified Eagle Medium (DMEM, Gibco) containing 10% fetal bovine serum (FBS, Gibco) to give a final concentration of 30,000 cells/mL. To each well of a 96-well plate (Corning® Costar®) was added 100 μL of the cell media solution with a multichannel pipet. The test compounds were then added to the plate as follows: test compounds were diluted in DMSO to a concentration of 1 mM. […]
Answers are plain numbers, in nM.

{"Compound": "CCC1(NC(=O)c2ccc(OC(F)F)cc2)CC2CN(CCc3c([nH]c4ccccc34)C(C(=O)OC)(c3cc4c(cc3OC)N(C)C3C(O)(C(=O)OC)C(OC(C)=O)C5(CC)C=CCN6CCC43C65)C2)C1 (stereo not drawn)", "Property name": "IC50", "Observed result": 5.9}
{"Compound": "CC[C@]1(NC(=O)c2ccccc2Cl)C[C@H]2CN(CCc3c([nH]c4ccccc34)[C@@](C(=O)OC)(c3cc4c(cc3OC)N(C)[C@H]3[C@@](O)(C(=O)OC)[C@H](OC(C)=O)[C@]5(CC)C=CCN6CC[C@]43[C@@H]65)C2)C1", "Property name": "IC50", "Observed result": 50}

Attention now shifts to the item below.
Q: Endpoint output: IC50 of CC[C@]1(NC(=O)c2cccc(Br)c2)C[C@H]2CN(CCc3c([nH]c4ccccc34)[C@@](C(=O)OC)(c3cc4c(cc3OC)N(C)[C@H]3[C@@](O)(C(=O)OC)[C@H](OC(C)=O)[C@]5(CC)C=CCN6CC[C@]43[C@@H]65)C2)C1 . Value?
A: 5

* * *

# Tested on: HCT116
# Protocol text: cells
# Type: cell-based, human
# Test settings: Table 6; read-out: IC50 HCT116
Property name: IC50 (nM)
Numbers only, in nM.

Consider the reported IC50 for these compounds:
{"Compound": "CCC1(NC(=O)c2ccc3cccnc3c2)CC2CN(CCc3c([nH]c4ccccc34)C(C(=O)OC)(c3cc4c(cc3OC)N(C)C3C(O)(C(=O)OC)C(OC(C)=O)C5(CC)C=CCN6CCC43C65)C2)C1 (centres unmarked)", "IC50, nM": 0.7}
{"Compound": "CC[C@]1(NC(=O)c2ccc3nccnc3c2)C[C@H]2CN(CCc3c([nH]c4ccccc34)[C@@](C(=O)OC)(c3cc4c(cc3OC)N(C)[C@H]3[C@@](O)(C(=O)OC)[C@H](OC(C)=O)[C@]5(CC)C=CCN6CC[C@]43[C@@H]65)C2)C1", "IC50, nM": 0.6}
{"Compound": "CCC1(NC(=O)c2ccc3cnccc3c2)CC2CN(CCc3c([nH]c4ccccc34)C(C(=O)OC)(c3cc4c(cc3OC)N(C)C3C(O)(C(=O)OC)C(OC(C)=O)C5(CC)C=CCN6CCC43C65)C2)C1 (centres unmarked)", "IC50, nM": 0.6}
{"Compound": "CCC1(NC(=O)c2nc3ccccc3s2)CC2CN(CCc3c([nH]c4ccccc34)C(C(=O)OC)(c3cc4c(cc3OC)N(C)C3C(O)(C(=O)OC)C(OC(C)=O)C5(CC)C=CCN6CCC43C65)C2)C1 (centres unmarked)", "IC50, nM": 80}

Attention now shifts to the item below.
Q: Endpoint output: IC50 of CCC1(NC(=O)c2ccc3ocnc3c2)CC2CN(CCc3c([nH]c4ccccc34)C(C(=O)OC)(c3cc4c(cc3OC)N(C)C3C(O)(C(=O)OC)C(OC(C)=O)C5(CC)C=CCN6CCC43C65)C2)C1 (centres unmarked) . Value?
A: 5.1

* * *

# Test system: L1210
# Protocol text: cells
# Format: cell-based, mouse
# Test settings: Table 4
# Procedure: A population of cells (>1×10^6 cells/mL as determined with a hemocytometer) was diluted with Dulbecco's Modified Eagle Medium (DMEM, Gibco) containing 10% fetal bovine serum (FBS, Gibco) to give a final concentration of 30,000 cells/mL. To each well of a 96-well plate (Corning® Costar®) was added 100 μL of the cell media solution with a multichannel pipet. The test compounds were then added to the plate as follows: test compounds were diluted in DMSO to a concentration of 1 mM. […]
Answer each item with its documented pIC50.
Numbers only, as −log10 of the molar value.

Consider the reported pIC50 for these compounds:
{"Compound": "CCC1(NC(=O)C2CCc3ccccc3C2)CC2CN(CCc3c([nH]c4ccccc34)C(C(=O)OC)(c3cc4c(cc3OC)N(C)C3C(O)(C(=O)OC)C(OC(C)=O)C5(CC)C=CCN6CCC43C65)C2)C1 (mixture of isomers)", "pIC50": 6.38}
{"Compound": "CCC1(NC(=O)c2ccc3cccc(OC)c3c2)CC2CN(CCc3c([nH]c4ccccc34)C(C(=O)OC)(c3cc4c(cc3OC)N(C)C3C(O)(C(=O)OC)C(OC(C)=O)C5(CC)C=CCN6CCC43C65)C2)C1 (stereo not shown)", "pIC50": 8.00}
{"Compound": "CC[C@]1(NC(=O)c2ccc3cc4ccccc4cc3c2)C[C@H]2CN(CCc3c([nH]c4ccccc34)[C@@](C(=O)OC)(c3cc4c(cc3OC)N(C)[C@H]3[C@@](O)(C(=O)OC)[C@H](OC(C)=O)[C@]5(CC)C=CCN6CC[C@]43[C@@H]65)C2)C1", "pIC50": 7.40}
{"Compound": "CCC1(NC(=O)c2ccc3c(c2)CCC3)CC2CN(CCc3c([nH]c4ccccc34)C(C(=O)OC)(c3cc4c(cc3OC)N(C)C3C(O)(C(=O)OC)C(OC(C)=O)C5(CC)C=CCN6CCC43C65)C2)C1 (stereo not shown)", "pIC50": 8.30}

Record pIC50 per entry; entries follow.
1. CCC1(NC(=O)c2cccc3ccccc23)CC2CN(CCc3c([nH]c4ccccc34)C(C(=O)OC)(c3cc4c(cc3OC)N(C)C3C(O)(C(=O)OC)C(OC(C)=O)C5(CC)C=CCN6CCC43C65)C2)C1 (stereo not shown)
2. CCC1(NC(=O)c2ccc3c(c2)C(C)(C)CCC3(C)C)CC2CN(CCc3c([nH]c4ccccc34)C(C(=O)OC)(c3cc4c(cc3OC)N(C)C3C(O)(C(=O)OC)C(OC(C)=O)C5(CC)C=CCN6CCC43C65)C2)C1 (stereo not shown)
3. CC[C@]1(O)C[C@@H]2CN(CCc3c([nH]c4ccccc34)[C@@](C(=O)OC)(c3cc4c(cc3OC)N(C)[C@H]3[C@@](O)(C(=O)OC)[C@H](OC(C)=O)[C@]5(CC)C=CCN6CC[C@]43[C@@H]65)C2)C1 [Vinblastine (1), Vinblastine, reference compound]
4. CCC1(NC(=O)c2ccc3c(c2)CCCCC3)CC2CN(CCc3c([nH]c4ccccc34)C(C(=O)OC)(c3cc4c(cc3OC)N(C)C3C(O)(C(=O)OC)C(OC(C)=O)C5(CC)C=CCN6CCC43C65)C2)C1 (stereo not shown)
5. CCC1(NC(=O)c2ccc3ccccc3c2)CC2CN(CCc3c([nH]c4ccccc34)C(C(=O)OC)(c3cc4c(cc3OC)N(C)C3C(O)(C(=O)OC)C(OC(C)=O)C5(CC)C=CCN6CCC43C65)C2)C1 (stereo not shown)
6. CCC1(NC(=O)c2ccc3cc(OC)ccc3c2)CC2CN(CCc3c([nH]c4ccccc34)C(C(=O)OC)(c3cc4c(cc3OC)N(C)C3C(O)(C(=O)OC)C(OC(C)=O)C5(CC)C=CCN6CCC43C65)C2)C1 (stereo not shown)

A:
1: 7.22; 2: 8.13; 3: 8.22; 4: 8.21; 5: 8.72; 6: 8.60

* * *

# System: L1210
# Protocol text: cells
# Assay type: cell-based, mouse
# Test settings: Table 2
Answer each item with its documented IC50.
Give bare numbers, in nM.

{"Compound": "CCC1(NC(=O)c2ccc(OC)c(OC)c2)CC2CN(CCc3c([nH]c4ccccc34)C(C(=O)OC)(c3cc4c(cc3OC)N(C)C3C(O)(C(=O)OC)C(OC(C)=O)C5(CC)C=CCN6CCC43C65)C2)C1 (centres unmarked) [Compound 70]", "IC50, nM": 0.06}

Attention now shifts to the item below.
Q: Endpoint output: IC50 of CC[C@]1(NC(=O)c2cccc(F)c2)C[C@H]2CN(CCc3c([nH]c4ccccc34)[C@@](C(=O)OC)(c3cc4c(cc3OC)N(C)[C@H]3[C@@](O)(C(=O)OC)[C@H](OC(C)=O)[C@]5(CC)C=CCN6CC[C@]43[C@@H]65)C2)C1 [Compound 45] . Value?
A: 5.7

* * *

# Tested on: L1210
# Protocol text: cells
# Assay type: cell-based, mouse
# Test settings: Table 2
Property name: IC50 (nM)
One number for each entry, in nM.

Consider the reported IC50 for these molecules:
{"Molecule": "CCC(C)c1ccc(C(=O)N[C@@]2(CC)C[C@H]3CN(CCc4c([nH]c5ccccc45)[C@@](C(=O)OC)(c4cc5c(cc4OC)N(C)[C@H]4[C@@](O)(C(=O)OC)[C@H](OC(C)=O)[C@]6(CC)C=CCN7CC[C@]54[C@@H]76)C3)C2)cc1 (stereo partly shown) [Compound 37]", "Target under test": "L1210", "Observed result": 25}
{"Molecule": "CCC1(NC(=O)c2ccc(C(F)(F)F)cc2)CC2CN(CCc3c([nH]c4ccccc34)C(C(=O)OC)(c3cc4c(cc3OC)N(C)C3C(O)(C(=O)OC)C(OC(C)=O)C5(CC)C=CCN6CCC43C65)C2)C1 (stereo not shown) [Compound 39]", "Target under test": "L1210", "Observed result": 4.3}
{"Molecule": "CCC1(NC(=O)c2ccc(-c3ccccc3)cc2)CC2CN(CCc3c([nH]c4ccccc34)C(C(=O)OC)(c3cc4c(cc3OC)N(C)C3C(O)(C(=O)OC)C(OC(C)=O)C5(CC)C=CCN6CCC43C65)C2)C1 (stereo not shown) [Compound 42]", "Target under test": "L1210", "Observed result": 5.5}

Attention now shifts to the item below.
Q: Endpoint output: IC50 of CCC1(NC(=O)c2ccccc2C(F)(F)F)CC2CN(CCc3c([nH]c4ccccc34)C(C(=O)OC)(c3cc4c(cc3OC)N(C)C3C(O)(C(=O)OC)C(OC(C)=O)C5(CC)C=CCN6CCC43C65)C2)C1 (stereo not shown) [Compound 41] . Value?
A: 45
